FYI, the data here is from a melting point compilation (Tetko et al.; mined from patent text by program, amines drawn as free bases though some values may be those of a salt).

measurement_label: melting point

[
  {
    "molecule": "Cc1cc(Br)cnc1CCCCNc1ncc(Cc2ccn(Cc3ccccc3)c(=O)c2)c(=O)[nH]1",
    "measurement_label": "melting point",
    "endpoint_result": "140 to 144 °C"
  },
  {
    "molecule": "NS(=O)(=O)c1cc(CCNC(=O)C=Cc2cccs2)ccc1OCC1CCCO1 (centres undefined)",
    "measurement_label": "melting point",
    "endpoint_result": "180 to 185 °C"
  },
  {
    "molecule": "CS(=O)(=O)N[C@@H](CCCCNC=O)C(=O)NC[C@H](CC1(C(=O)N[C@@H](Cc2ccc(O)cc2)C(=O)O)CCCC1)C(=O)O",
    "measurement_label": "melting point",
    "endpoint_result": "56 to 60 °C"
  },
  {
    "molecule": "Nc1ccc(CCN2CCC(NC(=O)c3ccccc3)CC2)cc1",
    "measurement_label": "melting point",
    "endpoint_result": "193 to 195 °C"
  },
  {
    "molecule": "CC(C)n1nc(-c2c(-c3ccccc3)nn3ccc(NC(=O)c4ccccc4)cc23)ccc1=O",
    "measurement_label": "melting point",
    "endpoint_result": "266 to 267 °C"
  },
  {
    "molecule": "COC(=O)c1cc(S(N)(=O)=O)c(F)cc1N",
    "measurement_label": "melting point",
    "endpoint_result": "209 to 211 °C"
  },
  {
    "molecule": "CS(=O)(=O)N(CCO)c1c(Cl)c(C(F)(F)F)cc2[nH]c(=O)c(=O)[nH]c12",
    "measurement_label": "melting point",
    "endpoint_result": "292 to 294 °C"
  },
  {
    "molecule": "CCc1csc(-c2ccc(OCCC3CCN(c4ccc(C)nn4)CC3)cc2)n1",
    "measurement_label": "melting point",
    "endpoint_result": "113 °C"
  }
]

Here is another molecule to look at.
Item N#CC(=Cc1ccc(O)c(O)c1)C(=O)O has what recorded melting point?
240 °C
